methodSummary: Metabolic stability in human hepatocytes assessed as half life at 5 microM incubated upto 180 mins by LC/MS analysis
Format: ADME, cell-based, Hepatocyte
measurementName: half-life at 5 µM (min)

1) CCOc1ccc2ccc(=O)oc2c1    39

====

measuredOn: Phosphatidylinositol 4,5-bisphosphate 3-kinase catalytic subunit beta isoform (Homo sapiens, UniProt P42338)
Sequence (P42338 whole entry, canonical isoform): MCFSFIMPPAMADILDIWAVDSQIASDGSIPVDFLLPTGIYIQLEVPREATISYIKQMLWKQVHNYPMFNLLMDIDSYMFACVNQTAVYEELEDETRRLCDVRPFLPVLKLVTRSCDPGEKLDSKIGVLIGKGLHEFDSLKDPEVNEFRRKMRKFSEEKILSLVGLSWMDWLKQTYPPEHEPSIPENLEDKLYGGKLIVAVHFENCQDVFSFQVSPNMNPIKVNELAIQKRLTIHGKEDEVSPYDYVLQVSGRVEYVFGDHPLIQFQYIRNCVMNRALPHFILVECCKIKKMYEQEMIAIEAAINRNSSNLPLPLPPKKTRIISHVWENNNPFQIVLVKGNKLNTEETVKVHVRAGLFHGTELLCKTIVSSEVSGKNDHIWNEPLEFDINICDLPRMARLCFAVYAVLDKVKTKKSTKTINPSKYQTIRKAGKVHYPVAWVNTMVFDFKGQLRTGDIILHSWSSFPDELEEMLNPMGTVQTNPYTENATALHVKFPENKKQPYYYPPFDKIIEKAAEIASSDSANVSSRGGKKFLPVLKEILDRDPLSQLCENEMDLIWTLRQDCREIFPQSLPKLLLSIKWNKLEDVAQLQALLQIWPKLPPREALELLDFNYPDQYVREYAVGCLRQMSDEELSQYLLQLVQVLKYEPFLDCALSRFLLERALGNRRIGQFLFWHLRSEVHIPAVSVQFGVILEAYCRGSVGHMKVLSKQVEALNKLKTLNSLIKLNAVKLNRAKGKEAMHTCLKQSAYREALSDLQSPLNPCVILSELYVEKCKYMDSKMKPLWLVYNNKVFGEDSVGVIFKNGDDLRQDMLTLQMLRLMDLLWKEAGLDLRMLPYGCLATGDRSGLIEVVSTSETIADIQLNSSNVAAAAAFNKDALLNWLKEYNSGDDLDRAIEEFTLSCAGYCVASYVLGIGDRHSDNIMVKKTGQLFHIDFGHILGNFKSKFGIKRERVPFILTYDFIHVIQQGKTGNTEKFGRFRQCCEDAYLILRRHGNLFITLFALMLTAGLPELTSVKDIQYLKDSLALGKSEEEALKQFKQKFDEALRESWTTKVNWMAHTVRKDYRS
methodSummary: Binding affinity to DNA-tagged P13kbeta (unknown origin) assessed as dissociation constant by quantitative PCR analysis
measurementName: Kd (µM)

1. Nc1cc(C(F)F)c(-c2nc(C3CCOCC3)nc(N3C4CCC3COC4)n2)cn1    6.45

Hey, just so you know, these numbers are from ChEMBL document CHEMBL5321201.
